Cited source: ChEMBL document CHEMBL1961873

Listed next: entries and their corresponding inhibition.
molecular target: Ephrin type-A receptor 3 (Homo sapiens); conditions: at 0.1 µM;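 further: values are mean inhibition of EPHA3, from the GSK PKIS dataset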
ATTRIBUTE_MEASURED: inhibition (%)

[[record]]
structure = "Nc1nonc1-c1nc2cnccc2n1C1CCCCC1"
data_value = -7.25

[[record]]
structure = "CCn1c(-c2nonc2N)nc2c(C#CC(C)(C)O)nc(O[C@@H](CN)c3ccccc3)cc21"
data_value = -1.47

[[record]]
structure = "COc1cc(C=NNc2ncnc3c2cnn3Cc2ccccc2)ccc1O"
data_value = -4.93

[[record]]
structure = "COc1cccc(-n2ncc3c(N/N=C/c4ccncc4)ncnc32)c1"
data_value = 5.89


----------
molecular target: Casein kinase I isoform alpha (Homo sapiens) (UniProt P48729); conditions: at 0.1 µM;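 further: values are the mean percent inhibition of CK1a, averaged over measurements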
Sequence (P48729 2-337 limits assumed): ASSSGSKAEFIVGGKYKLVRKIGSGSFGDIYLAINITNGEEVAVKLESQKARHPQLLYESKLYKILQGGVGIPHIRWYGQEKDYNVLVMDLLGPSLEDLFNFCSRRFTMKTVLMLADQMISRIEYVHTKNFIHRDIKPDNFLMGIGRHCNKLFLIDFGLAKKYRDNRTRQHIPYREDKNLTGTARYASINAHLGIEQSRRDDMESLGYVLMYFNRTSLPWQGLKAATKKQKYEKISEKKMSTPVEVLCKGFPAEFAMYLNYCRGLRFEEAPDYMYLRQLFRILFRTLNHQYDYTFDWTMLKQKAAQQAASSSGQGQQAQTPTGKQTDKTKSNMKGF
ATTRIBUTE_MEASURED: inhibition

[[record]]
structure = "CCn1c(-c2nonc2N)nc2c(C#CC(C)(C)O)ncc(OCC3CCNCC3)c21"
data_value = "4.15%"

[[record]]
structure = "Fc1ccc(-c2ncn(C3CCNCC3)c2-c2ccnc(Oc3ccccc3)n2)cc1"
data_value = "4.72%"

[[record]]
structure = "CCn1c(-c2nonc2N)nc2c(C#CCN)ncc(OCCCN)c21"
data_value = "1.05%"

